These data points were gathered from patent US7897627B2.

biological target: human orexin-2 (hOX2) receptor (Homo sapiens); construct: expressed in transfected cells; assay: Intracellular Ca2+ mobilization assay (FLIPR), CHO(dHFr-) cells expressing hOX2, orexin-A as agonist; assay type: cell-based; conditions: antagonist Kb=IC50/(1+[A]/EC50); orexin-A at EC80; CHO(dHFr-)-OX2R cells; antagonist applied 25 min before agonist
measure: log10(Kb) (log10 of the value in µM)
Values reflect log10 of reported Kb (µM).

O=C(c1ccccc1OC(F)(F)F)N1CC[C@@H](Nc2nc3c(F)cccc3s2)C1 [Example 122] ... -1.71

We next turn to a different molecule, shown below.
For reference, reported log10(Kb) for O=C(c1ccccc1OC(F)(F)F)N1CC[C@@H](Nc2cnc3ccccc3n2)C1 [Example 183] stands at -1.70

====

Here, each record is paired with measured Kb data.
Target: human orexin-2 (hOX2) receptor (Homo sapiens)
Construct: expressed in transfected cells
Sequence (O43614 1-444): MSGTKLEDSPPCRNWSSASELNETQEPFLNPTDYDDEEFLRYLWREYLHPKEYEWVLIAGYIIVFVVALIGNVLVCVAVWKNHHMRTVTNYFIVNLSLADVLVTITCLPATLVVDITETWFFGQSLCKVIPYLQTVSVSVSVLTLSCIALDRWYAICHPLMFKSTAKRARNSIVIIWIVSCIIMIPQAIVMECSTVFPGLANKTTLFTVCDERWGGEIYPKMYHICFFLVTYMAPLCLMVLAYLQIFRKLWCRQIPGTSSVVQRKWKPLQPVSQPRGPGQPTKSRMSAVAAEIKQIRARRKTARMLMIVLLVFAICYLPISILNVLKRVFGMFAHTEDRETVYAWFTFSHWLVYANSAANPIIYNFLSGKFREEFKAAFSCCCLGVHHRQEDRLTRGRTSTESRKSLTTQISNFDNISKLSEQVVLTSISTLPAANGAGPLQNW
Experiment: Intracellular Ca2+ mobilization assay (FLIPR), CHO(dHFr-) cells expressing hOX2, orexin-A as agonist
Assay type: cell-based
Details: antagonist Kb=IC50/(1+[A]/EC50); orexin-A at EC80; CHO(dHFr-)-OX2R cells; antagonist applied 25 min before agonist
Just the number in µM, nothing appended.

These solved cases illustrate the format of a correct answer.
O=C(c1c(Cl)cccc1C(F)(F)F)N1CC[C@@H](Nc2nc3ccc(Cl)cc3o2)C1 ... 0.0173
Cc1ccc(C(F)(F)F)c(C(=O)N2CC[C@@H](Nc3nc4ccc(F)cc4o3)C2)c1 ... 0.0205
Cc1nc(C(=O)N2CC[C@@H](Nc3nc4ccc(F)cc4o3)C2)c(-c2ccccc2)s1 ... 0.047
Cc1ccc(Cl)c(C(=O)N2CC[C@@H](Nc3cnc4cc(F)c(F)cc4n3)C2)c1 ... 0.0129
Cc1nc(C(=O)N2CC[C@@H](Nc3nc4ccc(F)cc4s3)C2)c(-c2ccccc2)s1 ... 0.0188

We next turn to a different compound, shown below.
Field Kb (human orexin-2 (hOX2) receptor (Homo sapiens)), entry "O=C(c1ccccc1OC(F)(F)C(F)F)N1CC[C@@H](Nc2nc3ccc(F)c(F)c3o2)C1" : 0.0072

====

target: human orexin-2 (hOX2) receptor (Homo sapiens); construct: expressed in transfected cells; test: Intracellular Ca2+ mobilization assay (FLIPR), CHO(dHFr-) cells expressing hOX2, orexin-A as agonist; format: cell-based; details: antagonist Kb=IC50/(1+[A]/EC50); orexin-A at EC80; CHO(dHFr-)-OX2R cells; antagonist applied 25 min before agonist
Please note: label 1 applies when Kb is 0.01 µM or greater, and label 0 applies otherwise.

O=C(c1ccccc1OC(F)F)N1CC[C@@H](Nc2nc3ccc(Cl)cc3o2)C1 ... label 1
Cc1noc(-c2ccccc2C(=O)N2CC[C@@H](Nc3cnc4cc(Cl)ccc4n3)C2)n1 ... label 1
O=C(c1ccccc1OC(F)(F)F)N1CC[C@@H](Nc2nc3ccc(F)c(F)c3o2)C1 ... label 1
Cc1ccc(C(F)(F)F)c(C(=O)N2CC[C@@H](Nc3cnc4ccccc4n3)C2)c1 ... label 0
O=C(c1ccccc1OC(F)(F)F)N1CC[C@@H](Nc2nc3ccc(F)cc3o2)C1 ... label 1
COc1cccc(OC)c1C(=O)N1CC[C@@H](Nc2nc3ccc(Cl)cc3o2)C1 ... label 1
Cc1onc(-c2ccccc2)c1C(=O)N1CC[C@@H](Nc2cnc3cc(F)c(F)cc3n2)C1 ... label 0
Cc1noc(-c2ccccc2C(=O)N2CC[C@@H](Nc3cnc4cc(F)c(F)cc4n3)C2)n1 ... label 0

Decide: Kb of "COc1ccc(C)cc1C(=O)N1CC[C@@H](Nc2cnc3cc(F)c(F)cc3n2)C1" >= 0.01 µM?
label 1

Decide: Kb of "Cc1noc(-c2ccccc2C(=O)N2CC[C@@H](Nc3nc4ccc(Cl)cc4o3)C2)n1" >= 0.01 µM?
label 1

Decide: Kb of "O=C(c1ccccc1-c1ccsc1)N1CC[C@@H](Nc2nc3ccc(Cl)cc3o2)C1" >= 0.01 µM?
label 0

Decide: Kb of "CCc1ccccc1C(=O)N1CC[C@@H](Nc2nc3ccc(Cl)cc3o2)C1" >= 0.01 µM?
label 1

Decide: Kb of "O=C(c1ccccc1OC(F)(F)C(F)F)N1CC[C@@H](Nc2nc3cccc(F)c3o2)C1" >= 0.01 µM?
label 1

Decide: Kb of "Cc1ccc(C(F)(F)F)c(C(=O)N2CC[C@@H](Nc3cnc4cc(F)ccc4n3)C2)c1" >= 0.01 µM?
label 0

Decide: Kb of "Cc1cc(C(=O)N2CC[C@@H](Nc3nc4ccc(Cl)cc4o3)C2)c(C(F)(F)F)o1" >= 0.01 µM?
label 1

Decide: Kb of "O=C(c1ccccc1OC(F)(F)C(F)F)N1CC[C@@H](Nc2cnc3cc(F)c(F)cc3n2)C1" >= 0.01 µM?
label 0

Decide: Kb of "O=C(c1ccccc1OC(F)(F)C(F)F)N1CC[C@@H](Nc2cnc3cc(Cl)ccc3n2)C1" >= 0.01 µM?
label 1

Decide: Kb of "O=C(c1c(Cl)cccc1Cl)N1CC[C@@H](Nc2nc3ccc(Cl)cc3o2)C1" >= 0.01 µM?
label 1

Decide: Kb of "Cc1onc(-c2ccccc2)c1C(=O)N1CC[C@@H](Nc2cnc3cc(Cl)ccc3n2)C1" >= 0.01 µM?
label 1
